All values here come from ChEMBL document CHEMBL2321806.

Reported Ki values for the following compounds.
ASSAY_TARGET: Insulin-degrading enzyme (Homo sapiens, UniProt P14735)
Sequence (P14735 whole entry): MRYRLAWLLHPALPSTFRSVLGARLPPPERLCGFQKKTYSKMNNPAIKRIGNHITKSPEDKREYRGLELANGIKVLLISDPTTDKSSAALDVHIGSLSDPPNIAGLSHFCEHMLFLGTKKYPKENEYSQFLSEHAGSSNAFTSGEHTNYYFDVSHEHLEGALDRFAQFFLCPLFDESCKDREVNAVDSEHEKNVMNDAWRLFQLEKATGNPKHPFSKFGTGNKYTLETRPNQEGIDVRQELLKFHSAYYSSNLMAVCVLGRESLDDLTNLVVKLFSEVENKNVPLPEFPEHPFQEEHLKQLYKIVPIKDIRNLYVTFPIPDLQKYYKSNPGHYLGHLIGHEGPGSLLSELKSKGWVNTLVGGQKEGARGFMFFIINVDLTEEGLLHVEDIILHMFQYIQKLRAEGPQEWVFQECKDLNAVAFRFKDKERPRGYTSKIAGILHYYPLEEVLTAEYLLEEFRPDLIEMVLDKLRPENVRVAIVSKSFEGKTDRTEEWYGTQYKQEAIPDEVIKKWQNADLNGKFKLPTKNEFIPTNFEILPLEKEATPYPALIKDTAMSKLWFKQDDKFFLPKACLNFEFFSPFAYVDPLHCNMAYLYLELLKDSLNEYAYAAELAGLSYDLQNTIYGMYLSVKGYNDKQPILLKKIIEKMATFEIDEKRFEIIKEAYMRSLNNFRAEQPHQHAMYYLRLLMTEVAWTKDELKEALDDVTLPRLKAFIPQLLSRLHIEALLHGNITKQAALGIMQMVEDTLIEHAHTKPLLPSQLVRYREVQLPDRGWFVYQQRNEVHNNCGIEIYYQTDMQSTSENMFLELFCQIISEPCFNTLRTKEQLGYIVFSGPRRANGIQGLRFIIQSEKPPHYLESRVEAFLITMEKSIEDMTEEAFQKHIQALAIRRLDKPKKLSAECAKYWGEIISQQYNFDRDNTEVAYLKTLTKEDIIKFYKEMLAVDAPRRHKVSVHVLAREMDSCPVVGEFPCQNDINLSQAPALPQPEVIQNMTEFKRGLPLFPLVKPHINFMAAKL
PROCEDURE_SUMMARY: Inhibition of human recombinant IDE-mediated insulin degradation
COND: read-out: Ki(app)

Some compounds with known Ki results, for comparison:
INSERT INTO assay_data (cpd_smiles, reported_measurement) VALUES
  ('NC(=O)[C@H](CCC(=O)O)NC(=O)[C@H](Cc1c[nH]c2ccccc12)NC(=O)[C@H](CCCN=C(N)N)NC(=O)[C@H](Cc1ccc2ccccc2c1)[C@@H](O)C(=O)NO', '1.89 µM'),
  ('NC(=O)[C@H](CCC(=O)O)NC(=O)[C@H](Cc1c[nH]c2ccccc12)NC(=O)[C@H](CCCN=C(N)N)NC(=O)[C@H](Cc1ccc2ccccc2c1)[C@H](O)C(=O)NO', '0.275 µM'),
  ('CC[C@@H](C)[C@H]1NC(=O)[C@@H](Cc2ccccc2)NC(=O)[C@@H](Cc2cnc[nH]2)NC(=O)[C@@H](CC(=O)O)NC(=O)CC[C@H](C(=O)N[C@H](Cc2c[nH]c3ccccc23)C(=O)N[C@H](CCCN=C(N)N)C(=O)N[C@H](Cc2ccc3ccccc3c2)C(=O)NO)NC(=O)[C@@H](CCCN=C(N)N)NC1=O', '0.171 µM');

Please examine the following record next.
Record CC(=O)N[C@@H](CCC(=O)NCCNc1cccc2c(S(=O)(=O)O)cccc12)C(=O)N[C@H](Cc1ccc(O)cc1)C(=O)N(C(=O)c1ccccc1)[C@H](Cc1ccccc1)C(=O)N[C@H](Cc1ccc2ccccc2c1)C(=O)NO has Insulin-degrading enzyme (Homo sapiens, UniProt P14735) Ki equal to 0.41 µM

----------
ASSAY_TARGET: Insulin-degrading enzyme (Homo sapiens)
PROCEDURE_SUMMARY: Inhibition of human recombinant IDE-mediated fluorescein-Abeta-(1-40)-Lys-biotin degradation
COND: read-out: Ki(app)
MEASURED_METRIC: pKi
Keep in mind that pKi stands for -log10 of concentration in molar terms.

INSERT INTO measurements (cpd_smiles, reported_measurement) VALUES
  ('NC(=O)[C@H](CCC(=O)O)NC(=O)[C@H](Cc1c[nH]c2ccccc12)NC(=O)[C@H](CCCN=C(N)N)NC(=O)[C@H](Cc1ccc2ccccc2c1)[C@@H](O)C(=O)NO', 6.03),
  ('NC(N)=NCCC[C@@H](NC(=O)[C@@H](Cc1c[nH]c2ccccc12)NC(=O)[C@H](N)CCC(=O)O)C(=O)N[C@H](Cc1ccc2ccccc2c1)C(=O)NO', 6.64);

Form field pKi for item NC(=O)[C@H](CCC(=O)O)NC(=O)[C@H](Cc1c[nH]c2ccccc12)NC(=O)[C@H](CCCN=C(N)N)NC(=O)[C@H](Cc1ccc2ccccc2c1)[C@H](O)C(=O)NO on Insulin-degrading enzyme (Homo sapiens): 7.15

----------
# pKi per entry
ASSAY_TARGET: Insulin-degrading enzyme (Homo sapiens, UniProt P14735)
PROCEDURE_SUMMARY: Inhibition of human recombinant IDE-mediated FRET1 degradation
COND: read-out: Ki(app)
For clarity, pKi is expressed as the negative log10 of concentration in mol/L.

INSERT INTO results (cpd_smiles, reported_measurement) VALUES
  ('CC[C@@H](C)[C@H]1NC(=O)[C@@H](Cc2ccccc2)NC(=O)[C@@H](Cc2cnc[nH]2)NC(=O)[C@@H](CC(=O)O)NC(=O)CC[C@H](C(=O)N[C@H](Cc2c[nH]c3ccccc23)C(=O)N[C@H](CCCN=C(N)N)C(=O)N[C@H](Cc2ccc3ccccc3c2)C(=O)NO)NC(=O)[C@@H](CCCN=C(N)N)NC1=O', 7.64),
  ('C=CCOC(=O)[C@H](CCCN=C(N)N)NC(=O)[C@@H](CC(=O)NO)Cc1ccc2ccccc2c1', 7.06);

// below: pKi requested for another molecule
According to the records, this molecule N=C(N)NCCC[C@@H](NC(=O)[C@@H](Cc1ccc(O)cc1)NC(=O)[C@H](N)CCC(=O)O)C(=O)N[C@H](Cc1ccc2ccccc2c1)C(=O)NO displays pKi of 7.07
